Values were extracted from ChEMBL document CHEMBL1909046.

# test-target: Neutrophil elastase (Homo sapiens, UniProt P08246); note: in other assays of this panel Not Active means under 50% inhibition at 10 µM;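 note: inhibition of neutrophil elastase enzyme activity, measured with a p-nitroanilide-linked peptide substrate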
# Sequence (P08246 whole entry): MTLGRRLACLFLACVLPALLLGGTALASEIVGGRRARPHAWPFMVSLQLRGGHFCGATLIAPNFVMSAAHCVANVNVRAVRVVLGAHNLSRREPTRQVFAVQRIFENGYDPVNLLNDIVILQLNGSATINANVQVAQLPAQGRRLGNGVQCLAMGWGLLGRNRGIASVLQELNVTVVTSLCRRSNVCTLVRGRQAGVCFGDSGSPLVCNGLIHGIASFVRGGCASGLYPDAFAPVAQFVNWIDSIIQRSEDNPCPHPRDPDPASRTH
# Type: tissue-based
recorded-endpoint: IC50

Examples from the recorded data:
Lab note: Neutrophil elastase (Homo sapiens, UniProt P08246) assay, enter IC50 for CCCCOC(=O)c1ccc(N)cc1 here
Not Active

Lab note: Neutrophil elastase (Homo sapiens, UniProt P08246) assay, enter IC50 for NCCCC[C@H](N[C@@H](CCc1ccccc1)C(=O)O)C(=O)N1CCC[C@H]1C(=O)O [LISINOPRIL ANHYDROUS] here
Not Active

Lab note: Neutrophil elastase (Homo sapiens, UniProt P08246) assay, enter IC50 for CC(C)(O)c1ccccc1CC[C@@H](SCC1(CC(=O)O)CC1)c1cccc(/C=C/c2ccc3ccc(Cl)cc3n2)c1 here
Not Active

Lab note: Neutrophil elastase (Homo sapiens, UniProt P08246) assay, enter IC50 for Cc1[nH]cnc1CN1CCc2c(c3ccccc3n2C)C1=O here
Not Active

Please find the next compound below.
Lab note: Neutrophil elastase (Homo sapiens, UniProt P08246) assay, enter IC50 for CC(C)(C)NCC(O)c1ccc(O)c(CO)c1 (stereo not given) here
Not Active
